target: imidazole glycerol phosphate synthase (IGPS), HisH-HisF heterodimer (Thermotoga maritima, UniProt Q9X0C6+Q9X0C8)
assayNotes: glutaminase assay, coupled glutamate dehydrogenase/APAD
Assay type: biochemical
resultType: Ki

input: Please look up its Ki: CCC(CNCCO)Nc1nc2c(c(=O)n(C)c(=O)n2C)n1Cc1ccccc1 (stereo not shown) [compound 3]
output: 900 µM

* * *

target: imidazole glycerol phosphate synthase (IGPS), HisH-HisF heterodimer (Thermotoga maritima, UniProt Q9X0C6+Q9X0C8)
assayNotes: isothermal titration calorimetry
resultType: Kd (µM)
One number for each entry, in µM.

input: I have this compound here, CCC(CNCCO)Nc1nc2c(c(=O)n(C)c(=O)n2C)n1Cc1ccccc1 (stereo not shown) , and I need its recorded Kd.
output: 1500

meta.source: paper PMC5283573
